- ASSAY REMARKS: Fraction unbound in rat brain at 5 uM after 5 hrs by equilibrium dialysis method
- Format: ADME, tissue-based
MEASUREMENT NAME: fraction unbound at 5 h, 5 µM
Just the number.

Bench note: what fraction unbound at 5 h, 5 µM did Cc1cc(-c2c(Cl)cccc2OC(F)(F)F)cc2c1NC(=O)C2 show? 0.4

---

- ASSAY REMARKS: Thermodynamic solubility of the compound in fasted state simulated intestinal fluid at pH 6.5 incubated under stirred condition for 3 days
- ASSAY CONDITIONS: read-out: Therm_solubility
MEASUREMENT NAME: log10 solubility thermodynamic at 72 h (log10 of the value in µM)
Please note: log10 values; quantity solubility thermodynamic at 72 h; unit µM.

Bench note: what log10 solubility thermodynamic at 72 h did Cc1cccc(Cl)c1-c1ccc2[nH]c(=O)[nH]c2c1 show? 2.16

Bench note: what log10 solubility thermodynamic at 72 h did Cc1cccc(C)c1-c1ccc2[nH]c(=O)[nH]c2c1 show? 2.44

Bench note: what log10 solubility thermodynamic at 72 h did N#Cc1cccc(Cl)c1-c1ccc2[nH]c(=O)[nH]c2c1 show? 0.70

Bench note: what log10 solubility thermodynamic at 72 h did O=c1[nH]c2ccc(-c3c(Cl)cccc3OC(F)(F)F)cc2[nH]1 show? 1.87

Bench note: what log10 solubility thermodynamic at 72 h did COc1cccc(Cl)c1-c1ccc2[nH]c(=O)[nH]c2c1 show? 2.15

Bench note: what log10 solubility thermodynamic at 72 h did O=c1[nH]c2ccc(-c3c(Cl)cccc3Cl)cc2[nH]1 show? 1.84

Bench note: what log10 solubility thermodynamic at 72 h did N#CCc1cccc(Cl)c1-c1ccc2[nH]c(=O)[nH]c2c1 show? 2.36

Bench note: what log10 solubility thermodynamic at 72 h did Cc1cc(-c2c(Cl)cccc2OC(F)(F)F)cc2c1NC(=O)C2 show? 1.74

Bench note: what log10 solubility thermodynamic at 72 h did Cc1cc(-c2c(Cl)cncc2OC(F)(F)F)cc2c1NC(=O)C2 show? 1.65

Bench note: what log10 solubility thermodynamic at 72 h did O=c1[nH]c2ccc(-c3c(Cl)cncc3Cl)cc2[nH]1 show? 1.72

Bench note: what log10 solubility thermodynamic at 72 h did Cc1cc(-c2c(Cl)cncc2OC(F)F)cc2c1NC(=O)C2 show? 1.81

Bench note: what log10 solubility thermodynamic at 72 h did O=c1[nH]c2ccc(-c3c(Cl)cccc3C3CC3)cc2[nH]1 show? 1.95
